System: HEK-293T
Assay explanation: Multiplex assay against HEK293T
Assay type: toxicity, cell-based
Reported conditions: human, 24 h, 1 µM, compound concentration 1 uM, replicate 1

{"Compound": "O=C(O)Cc1ccccc1Nc1c(Cl)cccc1Cl", "Units text": "%", "Population Apoptotic (%)": 30}
{"Compound": "COc1ccccc1N1CCN(CCCCNC(=O)c2ccc3ccccc3c2)CC1.Cl", "Units text": "%", "Population Apoptotic (%)": 27}
{"Compound": "C[C@@H]1C[C@H]2[C@@H]3CCC4=CC(=O)C=C[C@]4(C)[C@@]3(F)[C@@H](O)C[C@]2(C)[C@@]1(O)C(=O)CO", "Units text": "%", "Population Apoptotic (%)": 31}
{"Compound": "Cc1ccc(/C(=C\\CN2CCCC2)c2ccccn2)cc1", "Units text": "%", "Population Apoptotic (%)": 30}
{"Compound": "O=S(=O)(c1ccccc1)c1cnc2c(N3CCNCC3)cccc2c1 [INTEPIRDINE]", "Units text": "%", "Population Apoptotic (%)": 28}
{"Compound": "CN1CCN2c3ncccc3Cc3ccccc3C2C1 (centres undefined)", "Units text": "%", "Population Apoptotic (%)": 33}
{"Compound": "CCCN1CCC[C@@H]2Cc3n[nH]cc3C[C@H]21.Cl [QUINPIROLE HYDROCHLORIDE]", "Units text": "%", "Population Apoptotic (%)": 30}
{"Compound": "O=C(NCCO)c1cccc(-c2cc(Nc3ccc(OC(F)(F)F)cc3)ncn2)c1", "Units text": "%", "Population Apoptotic (%)": 26}
{"Compound": "CN1CCN(c2nc3cc(C(F)(F)F)ccc3n3cccc23)CC1.O=C(O)/C=C\\C(=O)O.O=C(O)/C=C\\C(=O)O", "Units text": "%", "Population Apoptotic (%)": 33}
